These data points were gathered from the NIST ThermoML archive (doi:10.1016/j.jct.2018.01.003).

# EXPERIMENT_NOTES: activity coefficient (dimensionless); of the first substance listed, at infinite dilution; xn = mol fraction of the nth substance listed
# CONDITIONS_USED: 358.15 K; 101.33 kPa; Liquid; Chromatography; x1 = 0

COMPOUND: CCCC(=O)OC [methyl butanoate] + CCCCCCCCCCCCCC[P+](CCCCCC)(CCCCCC)CCCCCC.N#CC(=C=[N-])C#N
activity coefficient: 0.739
//
COMPOUND: CCOCC [diethyl ether] + CCCCCCCCCCCCCC[P+](CCCCCC)(CCCCCC)CCCCCC.N#CC(=C=[N-])C#N
activity coefficient: 1.05
//
COMPOUND: COC(C)=O [methyl ethanoate] + CCCCCCCCCCCCCC[P+](CCCCCC)(CCCCCC)CCCCCC.N#CC(=C=[N-])C#N
activity coefficient: 0.704
//
COMPOUND: C=C(C)c1ccccc1 [(1-methylethenyl)benzene] + CCCCCCCCCCCCCC[P+](CCCCCC)(CCCCCC)CCCCCC.N#CC(=C=[N-])C#N
activity coefficient: 0.716
//
COMPOUND: CC(C)=O [acetone] + CCCCCCCCCCCCCC[P+](CCCCCC)(CCCCCC)CCCCCC.N#CC(=C=[N-])C#N
activity coefficient: 0.491
//
COMPOUND: CCCO [propan-1-ol] + CCCCCCCCCCCCCC[P+](CCCCCC)(CCCCCC)CCCCCC.N#CC(=C=[N-])C#N
activity coefficient: 0.457
//
COMPOUND: CC1CCCCC1 [methylcyclohexane] + CCCCCCCCCCCCCC[P+](CCCCCC)(CCCCCC)CCCCCC.N#CC(=C=[N-])C#N
activity coefficient: 1.36

###

Reported activity coefficient is given for each of the following molecules.
# EXPERIMENT_NOTES: activity coefficient (dimensionless); of the first substance listed, at infinite dilution; xn = mol fraction of the nth substance listed
# CONDITIONS_USED: 358.15 K; 101.33 kPa; Liquid; Chromatography; x1 = 0
OBSERVABLE: activity coefficient

MOLECULE: CCCC=O [butanal] + CCCCCCCCCCCCCC[P+](CCCCCC)(CCCCCC)CCCCCC.N#CC(=C=[N-])C#N
OBSERVABLE: activity coefficient
REPORTED: 0.513

MOLECULE: Cc1ccc(C)cc1 [1,4-dimethylbenzene] + CCCCCCCCCCCCCC[P+](CCCCCC)(CCCCCC)CCCCCC.N#CC(=C=[N-])C#N
OBSERVABLE: activity coefficient
REPORTED: 0.804

MOLECULE: CCC(=O)OC [methyl propanoate] + CCCCCCCCCCCCCC[P+](CCCCCC)(CCCCCC)CCCCCC.N#CC(=C=[N-])C#N
OBSERVABLE: activity coefficient
REPORTED: 0.688

MOLECULE: CCOC(C)(C)C [2-ethoxy-2-methylpropane] + CCCCCCCCCCCCCC[P+](CCCCCC)(CCCCCC)CCCCCC.N#CC(=C=[N-])C#N
OBSERVABLE: activity coefficient
REPORTED: 1.53

###

Reported activity coefficient is given for each of the following molecules.
# EXPERIMENT_NOTES: activity coefficient (dimensionless); of the first substance listed, at infinite dilution; xn = mol fraction of the nth substance listed
# CONDITIONS_USED: 348.15 K; 101.33 kPa; Liquid; Chromatography; x1 = 0

MOLECULE: CCCC(=O)OC [methyl butanoate] + CCCCCCCCCCCCCC[P+](CCCCCC)(CCCCCC)CCCCCC.N#CC(=C=[N-])C#N
activity coefficient: 0.709

MOLECULE: C1CCCCC1 [cyclohexane] + CCCCCCCCCCCCCC[P+](CCCCCC)(CCCCCC)CCCCCC.N#CC(=C=[N-])C#N
activity coefficient: 1.16

MOLECULE: C1CCOC1 [tetrahydrofuran] + CCCCCCCCCCCCCC[P+](CCCCCC)(CCCCCC)CCCCCC.N#CC(=C=[N-])C#N
activity coefficient: 0.417

MOLECULE: CCCC=O [butanal] + CCCCCCCCCCCCCC[P+](CCCCCC)(CCCCCC)CCCCCC.N#CC(=C=[N-])C#N
activity coefficient: 0.494
